# System: XF 498 CNS
# procedure-details: NCI tumour cell line growth inhibition, 48 h
Catalogue of compounds with associated TGI

Illustrative cases are given below, each with its answer.
- COC(=O)c1onc(-c2c(OC)cc(OC)cc2OC)c1C(=O)OC: > 100 µM
- N#CC(C#N)=C1NC(=O)CC(=O)N1: > 100 µM

Here is the next item to consider.
What the record says about O=C(O)c1cc2c(ncc3c(=O)n(-c4ccccc4)[nH]c32)s1 : TGI is > 100 µM

----------
# Test system: NCI-H522 lung
# procedure-details: NCI tumour cell line growth inhibition, 48 h; in the data active means GI50 below about 0.43 µM; inactive means the rest
Respond using exactly one of the listed classes: active, inactive

- OCC1OC(n2cnc3c(N/N=C\c4ccccn4)ncnc32)C(O)C1O (stereo unspecified): active
- O=C1C(=C([O-])c2ccccc2)C(=O)c2ccccc21.O=C1C(=C([O-])c2ccccc2)C(=O)c2ccccc21.[Fe+2]: inactive

Which outcome did this test record for the molecule CO/N=C(\COc1ccc2c(c1)[nH]c1ccccc12)c1ccc(F)cc1 ?
inactive

Call for entry CNCCCNCCCCNCCCN1C(=O)c2ccc3c4c(ccc(c24)C1=O)C(=O)N(CCCNCc1ccccc1OC)C3=O :
inactive

# fetch the recorded call for COc1ccc(-c2[nH]c3ccccc3c2-c2ccc(OC)cc2)cc1 here
inactive

Status in this test for COc1ccc(-c2nc(Nc3cc(C)[nH]n3)c3ccccc3n2)cc1 ?
inactive

----------
# System: OVCAR-5 ovarian
# procedure-details: NCI tumour cell line growth inhibition, 48 h
compounds and their reported TGI

Past entries and their recorded results:
* CS(=O)(=O)OCC1CN(S(C)(=O)=O)c2cc(O)ccc21 (configuration not stated) | 18.3 µM
* O=C1OC(=O)C(=C\c2ccc3c(c2)OCO3)/C1=C/c1ccc2c(c1)OCO2 | > 100 µM
* c1ccc2c(c1)C1CCCCCC21N1CCOCC1 (configuration not stated) | > 100 µM
* CC1(/C=C/CCSc2ccccc2)CC(=O)C2CC1C2(C)C (configuration not stated) | > 100 µM
* CCCc1c(-c2ccccc2)[nH]c2ccccc2c1=O | > 100 µM

For reference, reported TGI for COC(=O)C1CC2CC(=NNC(N)=O)CC2C1 (configuration not stated) stands at > 100 µM

Documented TGI of Cc1n[nH]c(=O)n1N1C(=O)CCCC1=O : > 100 µM

Lab book: TGI of Cn1c(=O)c2[nH]c(CCNC(=O)c3ccccc3)nc2n(C)c1=O noted as > 100 µM

TGI for NNC(=O)CS(=O)(=O)Nc1ncccn1 is > 100 µM

Per the records, this compound ( CNCCCNCCCCNCCCN1C(=O)c2ccc3c4c(ccc(c24)C1=O)C(=O)N(CCCNCc1ccccc1OC)C3=O ) has TGI equal to 26.9 µM

Lookup result for CC(C)NCCCn1c(Sc2cc3c(cc2I)OCO3)nc2c(N)ncnc21 ; measured TGI: > 100 µM

Form: compound = COc1ccccc1-c1cc(=O)c2cc(C)cnc2[nH]1 ; TGI = > 100 µM

TGI in this record for COC1=CC(=O)C2=C(C1=O)[C@H]1CC[C@]3(C)[C@@H](O)CC[C@H]3[C@@H]1CC2 : 33.6 µM

Lab note: measured TGI of Cc1cccc(C)c1NC(=O)/C(=N/NC(N)=S)C(C)C(=O)c1ccc(Cl)cc1 (configuration not stated) was > 100 µM

The measurements presented in this section are drawn from PubChem BioAssay (NCI).
